- Assayed Target: Bcl-2 protein (Recombinant Human Bcl-2 Protein) (Homo sapiens)
- Construct: purchased Novus NBP2-34889
- Sequence (P10415 whole entry): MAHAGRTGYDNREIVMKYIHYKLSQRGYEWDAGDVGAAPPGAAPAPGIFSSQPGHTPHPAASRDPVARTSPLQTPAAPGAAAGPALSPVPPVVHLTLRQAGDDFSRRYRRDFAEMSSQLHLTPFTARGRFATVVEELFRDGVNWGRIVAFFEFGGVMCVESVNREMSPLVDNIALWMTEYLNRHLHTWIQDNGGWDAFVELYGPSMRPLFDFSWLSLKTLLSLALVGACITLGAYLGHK
- Protocol Notes: Binding evaluation of mixture library compounds to Bcl-2 using AS-MS (affinity selection mass spectrometry)
- Particulars: n = 1
ASMS ratio (%) listing for selected molecules.
In your response, the unit should come after the numeric value.

[
  {
    "Molecule": "CCOc1cccc(-c2cc(CN3CCN(c4ccc(C(=O)NS(=O)(=O)c5ccc(NCCSc6ccccc6)c(C(F)(F)F)c5)cc4)CC3)cc(OC(F)(F)F)c2)c1",
    "ASMS ratio (%)": "8.2%"
  }
]

# evaluate next
Requested read-out: ASMS ratio (%). Entry: CCOc1cccc(-c2ccccc2CN2CCN(c3ccc(C(=O)NS(C)(=O)=O)nn3)CC2)c1
−1.2%
